Experiment: In vitro plasma protein binding (ultrafiltration), monkey plasma
Format: in vitro ADME, monkey (Cynomolgus)
Conditions: 10-10,000 ng/mL, mean±SD, read-out: mean unbound protein fraction (fu) in plasma
Protocol: For human binding studies, plasma was obtained from the blood of three healthy male volunteers. Plasma was defrosted from storage at -20° C. before use, and pools of human plasma were used for all studies. […] Protein binding was measured using an ultrafiltration method. […] Samples of the spiked solutions, the filtrate and retentate were quantified by LSC; volumes were determined by weighing. […] Specifically, concentrations of Compound 1 was determined by an UPLC-MS/MS method. […]
Assay Metric: fraction unbound

Please list fraction unbound recorded for the compound CN(C)c1cc(CNCC(C)(C)C)c(O)c2c1C[C@H]1C[C@H]3[C@H](N(C)C)C(O)=C(C(N)=O)C(=O)[C@@]3(O)C(O)=C1C2=O 0.788

====

test system: A. baumanii; test: In vitro MIC, 2010 surveillance isolates; type: cell-based; settings: L. Amer; N=275
Assay Metric: MIC90

Examples with answers:
CN(C)c1cc(NC(=O)CNC(C)(C)C)c(O)c2c1C[C@H]1C[C@H]3[C@H](N(C)C)C(O)=C(C(N)=O)C(=O)[C@@]3(O)C(O)=C1C2=O | 2 µg/mL
CO/N=C(\C(=O)N[C@@H]1C(=O)N2C(C(=O)O)=C(CSc3nc(=O)c(=O)[nH]n3C)CS[C@H]12)c1csc(N)n1 | > 8 µg/mL
CN(C)c1cc(CNCC(C)(C)C)c(O)c2c1C[C@H]1C[C@H]3[C@H](N(C)C)C(O)=C(C(N)=O)C(=O)[C@@]3(O)C(O)=C1C2=O | 4 µg/mL
NCC[C@H](O)C(=O)N[C@@H]1C[C@H](N)[C@@H](O[C@H]2O[C@H](CN)[C@@H](O)[C@H](O)[C@H]2O)[C@H](O)[C@H]1O[C@H]1O[C@H](CO)[C@@H](O)[C@H](N)[C@H]1O | > 32 µg/mL
C[C@H]1c2cccc(O)c2C(=O)C2=C(O)[C@]3(O)C(=O)C(C(N)=O)=C(O)[C@@H](N(C)C)[C@@H]3[C@@H](O)[C@@H]21 | > 8 µg/mL
C[C@@H](O)[C@H]1C(=O)N2C(C(=O)O)=C(SCCN=CN)C[C@H]12 | > 8 µg/mL

Please list MIC90 recorded for the compound C[C@H]1COc2c(N3CCN(C)CC3)c(F)cc3c(=O)c(C(=O)O)cn1c23 > 4 µg/mL

Please list MIC90 recorded for the compound CO/N=C(\C(=O)N[C@@H]1C(=O)N2C(C(=O)[O-])=C(C[N+]3(C)CCCC3)CS[C@H]12)c1csc(N)n1 [Cefepime] > 16 µg/mL

====

assay: Phase 1b study in female adults with cystitis, urine PK; type: in vivo, human; conditions: female, human, urine and plasma, intravenous, 200 mg, Day 1, IV_PO300; read-out: Renal CL, Mean (converted)
Assay Metric: clearance (mL/min)
Report the figure in mL/min without appending any unit label.

Please list clearance recorded for the compound CN(C)c1cc(CNCC(C)(C)C)c(O)c2c1C[C@H]1C[C@H]3[C@H](N(C)C)C(O)=C(C(N)=O)C(=O)[C@@]3(O)C(O)=C1C2=O 38.3

====

assay: Phase 1b study in female adults with cystitis, plasma PK; format: in vivo, human; settings: female, human, plasma, intravenous, 200 mg, plasma, Day 1, IV_PO300; read-out: AUC(0-inf), Geo. Mean
Assay Metric: AUC(0-inf) (µg·h/mL)
Report the figure in µg·h/mL without appending any unit label.

Please list AUC(0-inf) recorded for the compound CN(C)c1cc(CNCC(C)(C)C)c(O)c2c1C[C@H]1C[C@H]3[C@H](N(C)C)C(O)=C(C(N)=O)C(=O)[C@@]3(O)C(O)=C1C2=O 19.7

meta.source: patent US10238670B2
